These data points were gathered from the supplement of paper PMC9112550.

tested on: Escherichia coli TOP10; test: shrunken log2 fold change of peptide-encoding DNA abundance (4.5 h post-induction vs induction); higher = less antimicrobial activity (less host growth inhibition); settings: time post-induction: 4.5 h; library: site-saturation at positions 5, 18, 19, 20
# binning rule on shrunken log2 fold change: A = under -0.03, B = from -0.03 up to 0.3, C = 0.3 and over

Hi, small favor: classify RRIRLRPPRLPRPRPRPHVNPRP by its shrunken log2 fold change when you get a moment.
A

Hi, small favor: classify RRIRGRPPRLPRPRPRPCCDPRP by its shrunken log2 fold change when you get a moment.
C

Hi, small favor: classify RRIRGRPPRLPRPRPRPKCGPRP by its shrunken log2 fold change when you get a moment.
C

Hi, small favor: classify RRIRIRPPRLPRPRPRPQKCPRP by its shrunken log2 fold change when you get a moment.
A

Hi, small favor: classify RRIRHRPPRLPRPRPRPDNQPRP by its shrunken log2 fold change when you get a moment.
A

Hi, small favor: classify RRIRPRPPRLPRPRPRPTAEPRP by its shrunken log2 fold change when you get a moment.
C

Hi, small favor: classify RRIRWRPPRLPRPRPRPPQVPRP by its shrunken log2 fold change when you get a moment.
C

Hi, small favor: classify RRIRSRPPRLPRPRPRPVSKPRP by its shrunken log2 fold change when you get a moment.
B

Hi, small favor: classify RRIRMRPPRLPRPRPRPDMTPRP by its shrunken log2 fold change when you get a moment.
A

Hi, small favor: classify RRIRNRPPRLPRPRPRPRWIPRP by its shrunken log2 fold change when you get a moment.
B

Hi, small favor: classify RRIRDRPPRLPRPRPRPVPSPRP by its shrunken log2 fold change when you get a moment.
C

Hi, small favor: classify RRIRCRPPRLPRPRPRPPNRPRP by its shrunken log2 fold change when you get a moment.
C

Hi, small favor: classify RRIRIRPPRLPRPRPRPMTDPRP by its shrunken log2 fold change when you get a moment.
A

Hi, small favor: classify RRIRPRPPRLPRPRPRPREYPRP by its shrunken log2 fold change when you get a moment.
B

Hi, small favor: classify RRIRTRPPRLPRPRPRPDCPPRP by its shrunken log2 fold change when you get a moment.
A

Hi, small favor: classify RRIRKRPPRLPRPRPRPRHMPRP by its shrunken log2 fold change when you get a moment.
B

Hi, small favor: classify RRIRKRPPRLPRPRPRPPECPRP by its shrunken log2 fold change when you get a moment.
B

Hi, small favor: classify RRIRPRPPRLPRPRPRPCHGPRP by its shrunken log2 fold change when you get a moment.
B

###

tested on: Escherichia coli TOP10; test: shrunken log2 fold change of peptide-encoding DNA abundance (4.5 h post-induction vs induction); higher = less antimicrobial activity (less host growth inhibition); conditions: time post-induction: 4.5 h; library: site-saturation at positions 5, 18, 19, 20;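 also: peptides expressed intracellularly from a pBAD plasmid library in pooled LB shake-flask culture, induced with 0.3% L-arabinose, DNA abundance read by NGS, three biological replicates, DESeq2 with apeglm shrinkage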
readout: shrunken log2 fold change
Output spec: single numeric token, no unit.

RRIRLRPPRLPRPRPRPNRSPRP; -0.0205
RRIRWRPPRLPRPRPRPCVSPRP; 0.144
RRIRVRPPRLPRPRPRPLWQPRP; 2.32
RRIRMRPPRLPRPRPRPESQPRP; 2.59
RRIRIRPPRLPRPRPRPKLLPRP; 0.0419

What does the data say about its shrunken log2 fold change? Entry: RRIRLRPPRLPRPRPRPVVTPRP
-0.0571

What does the data say about its shrunken log2 fold change? Entry: RRIRQRPPRLPRPRPRPRRWPRP
0.326

What does the data say about its shrunken log2 fold change? Entry: RRIRPRPPRLPRPRPRPCVMPRP
-0.162

What does the data say about its shrunken log2 fold change? Entry: RRIRHRPPRLPRPRPRPYRNPRP
-0.191

What does the data say about its shrunken log2 fold change? Entry: RRIRHRPPRLPRPRPRPRCKPRP
-0.053

What does the data say about its shrunken log2 fold change? Entry: RRIRERPPRLPRPRPRPMHDPRP
-0.286

What does the data say about its shrunken log2 fold change? Entry: RRIRHRPPRLPRPRPRPVPCPRP
0.337
